- experiment.notes: Saturated aqueous solubility determination
- measurement.conditions: deionized water, 25 °C, water, thermodynamic from solid
attribute.measured: solubility at 1.5 h

compound: CC(C)CCOC(=O)CN(C)C(=N)N.Cl [creatine isopentyl ester]
reported.measurement: > 600 mg/mL
//
compound: C[N+](C)(C)CC(=O)OC1CCCC1.[Br-] [betaine cyclopentyl ester]
reported.measurement: > 600 mg/mL
//
compound: CCOC(=O)CN(C)C(=N)N.Cl [creatine ethyl ester hydrochloride]
reported.measurement: > 200 mg/mL
//
compound: CN(CC(=O)OC1CCCCC1)C(=N)N.Cc1ccc(S(=O)(=O)O)cc1 [creatine cyclohexyl ester]
reported.measurement: 15 to 20 mg/mL
